Assignment: determine reported pIC50 for the given compounds.
pIC50: −log10 of the molar value.

Which pIC50 is reported with human CTPS1 (Homo sapiens, UniProt P17812) for this entry: CCOc1cncc(-c2ccc(NC(=O)C3(c4ccnc(NS(C)(=O)=O)n4)CCCCC3)nc2)n1 [P238] ?
≥ 7.00

Which pIC50 is reported with human CTPS1 (Homo sapiens, UniProt P17812) for this entry: CCOc1cncc(-c2ccc(NC(=O)C3(c4ccnc(NS(=O)(=O)C(C)(C)C)n4)CCOCC3)nc2)n1 [P246] ?
6.00 to 7.00

Which pIC50 is reported with human CTPS1 (Homo sapiens, UniProt P17812) for this entry: CCOc1cncc(-c2ccc(NC(=O)C3(c4nccc(NS(=O)(=O)C5CC5)n4)CCN(C)CC3)nc2)n1 [P319] ?
≥ 7.00

Which pIC50 is reported with human CTPS1 (Homo sapiens, UniProt P17812) for this entry: CCOc1cncc(-c2ccc(NC(=O)C3(c4ccnc(NS(=O)(=O)C5CC5)n4)CCCCC3)nc2)n1 [P237] ?
≥ 7.00

Which pIC50 is reported with human CTPS1 (Homo sapiens, UniProt P17812) for this entry: CCOc1cncc(-c2ccc(NC(=O)C3(c4ccnc(NS(=O)(=O)C5CC5)n4)CCN(C(C)C)CC3)nc2)n1 [P232] ?
6.00 to 7.00

* * *

Biological target: human CTPS1 (Homo sapiens, UniProt P17812)
Sequence (P17812 1-591): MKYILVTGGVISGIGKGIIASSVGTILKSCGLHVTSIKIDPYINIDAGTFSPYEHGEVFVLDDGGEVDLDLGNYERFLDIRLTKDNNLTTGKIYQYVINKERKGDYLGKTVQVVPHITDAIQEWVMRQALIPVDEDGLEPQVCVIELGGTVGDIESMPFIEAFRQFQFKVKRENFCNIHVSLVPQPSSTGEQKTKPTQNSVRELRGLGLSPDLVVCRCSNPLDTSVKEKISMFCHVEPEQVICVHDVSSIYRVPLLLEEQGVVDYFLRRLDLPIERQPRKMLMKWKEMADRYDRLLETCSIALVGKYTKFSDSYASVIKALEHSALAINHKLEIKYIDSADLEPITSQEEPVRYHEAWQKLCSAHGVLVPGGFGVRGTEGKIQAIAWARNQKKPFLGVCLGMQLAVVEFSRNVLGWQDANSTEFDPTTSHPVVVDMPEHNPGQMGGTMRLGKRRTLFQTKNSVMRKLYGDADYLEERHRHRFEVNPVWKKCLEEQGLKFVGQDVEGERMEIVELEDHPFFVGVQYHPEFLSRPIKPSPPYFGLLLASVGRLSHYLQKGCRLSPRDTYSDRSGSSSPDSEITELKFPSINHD
pIC50: −log10 of the molar value.
Assignment: determine reported pIC50 for the given molecules.

Which pIC50 is listed for O=C(Nc1ccc(-c2cncc(Cl)c2)cn1)C1(c2ccnc(NS(=O)(=O)C3CC3)n2)CCOCC1 ?
≥ 7.00

Which pIC50 is listed for CCOc1cncc(-c2ccc(NC(=O)C3(c4ccnc(NS(=O)(=O)C5CC5)n4)CCS(=O)(=O)CC3)nc2)n1 ?
≥ 7.00

Which pIC50 is listed for CCOc1cncc(-c2ccc(NC(=O)C3(c4nccc(NS(=O)(=O)C5CC5)n4)CCOCC3)nc2)n1 ?
≥ 7.00

Which pIC50 is listed for CCOc1cncc(-c2ccc(NC(=O)C3(c4ccnc(NS(=O)(=O)C5CC5)n4)CCN(C)CC3)nc2)n1 ?
6.00 to 7.00
